Please go through the items and note down their concentration at 0.5 h.
Experiment: Bioavailability in the portal circulation after 30 minutes was determined after intraduodenal dose of 10 mg/kg in rat by HPLC method
Assay type: ADME, organism-based
Conditions: plasma (portal circulation), read-out: Plasma level
The figure you give is taken to be in ng/mL; do not add the unit.

[Q] What value of concentration at 0.5 h has been reported for the following compound? CC(C)C[C@H](O)[C@H](O)[C@H](CC1CCCCC1)NC(=O)[C@H](Cc1cscn1)NC(=O)[C@@H](CC(=O)N(C)CCn1ccnc1)Cc1ccccc1
[A] 810

[Q] Likewise for CC(C)C[C@H](O)[C@H](O)[C@H](CC1CCCCC1)NC(=O)[C@H](Cc1cscn1)NC(=O)[C@@H](CC(=O)N(C)CCn1cccn1)Cc1ccccc1 ?
[A] 2300

[Q] What about this compound? COCCN(C)C(=O)C[C@@H](Cc1ccccc1)C(=O)N[C@@H](Cc1cscn1)C(=O)N[C@@H](CC1CCCCC1)[C@@H](O)[C@@H](O)CC(C)C
[A] 600

[Q] Would you kindly repeat that for CC(C)C[C@H](O)[C@H](O)[C@H](CC1CCCCC1)NC(=O)[C@H](Cc1cscn1)NC(=O)[C@@H](CC(=O)N(C)CCCN(C)C)Cc1ccccc1 ?
[A] 270

[Q] Same read-out for CC(C)C[C@H](O)[C@H](O)[C@H](CC1CCCCC1)NC(=O)[C@H](Cn1cccn1)NC(=O)[C@@H](CC(=O)N(C)CCc1ccccn1)Cc1ccccc1 ?
[A] 4500

[Q] Try this compound next: COCCOCOCCN(C)C(=O)C[C@@H](Cc1ccccc1)C(=O)N[C@@H](Cc1c[nH]cn1)C(=O)N[C@@H](CC1CCCCC1)[C@@H](O)[C@@H](O)CC(C)C
[A] 370

[Q] Again, but for CC(C)C[C@H](O)[C@H](O)[C@H](CC1CCCCC1)NC(=O)[C@H](Cc1cscn1)NC(=O)[C@H](Cc1ccccc1)CS(=O)(=O)C1CN(C)C1
[A] 1900

The reported measurements were obtained from ChEMBL document CHEMBL1126595.
